assay: Volatility of perfuming compounds (Tables 4 to 10), with top/middle/bottom note type; format: physicochemical; details: note type (Top/Middle/Bottom) by volatility; perfuming compounds having a green note
Structures can show the parent of a compound that is named as a salt.
ENDPOINT: Type

Sample answers from the record:
compound="CCCC(S)CCOC(C)=O (racemic) [(+−)-3-mercaptohexyl acetate]" endpoint=Type result=Top
compound="CCCCCC(=O)O [HEXANOIC ACID]" endpoint=Type result=Top
compound="CCCCC/C=C\\C=C\\C(=O)OCC [ethyl (2E,4Z)-2,4-decadienoate]" endpoint=Type result=Bottom
compound="CC1CCCC2(C)CCCCC12O (racemic)" endpoint=Type result=Top
compound="CC/C=C\\CCOC=O [(Z)-3-HEXENYL FORMATE]" endpoint=Type result=Top

Entry CCCC(S)CCOC (racemic) [(+−)-1-METHOXY-3-HEXANETHIOL] , Type reported as Top

Entry CC1=C[C@H](C)[C@H]2[C@H](CCC(C)(C)[C@H]2O)C1 (racemic) , Type reported as Bottom

Entry COC(Cc1ccccc1)OC [(2,2-DIMETHOXYETHYL)BENZENE] , Type reported as Top

Entry CCOC(=O)CC(C)=O , Type reported as Top

Entry CCCCCC#CC(=O)OC [METHYL 2-OCTYNOATE] , Type reported as Top

Entry CCCCCCCC=O [OCTANAL] , Type reported as Top
